Ref: the supplement of paper PMC10307832

- Tested on: PC-14
- ASSAY OVERVIEW: relative viability (nuclei count vs DMSO), 5 days (fraction); higher = more cells survive
- DETAILS: first compound 0.4 µM
Exercise: for every item that follows, state its recorded relative viability.
Answers are plain numbers.

Worked examples, 2 compounds total:
COMPOUND	relative viability
Cc1sc2c(c1C)C(c1ccc(Cl)cc1)=N[C@@H](CC(=O)OC(C)(C)C)c1nnc(C)n1-2 [JQ1] + CCNC(=O)c1noc(-c2cc(C(C)C)c(O)cc2O)c1-c1ccc(CN2CCOCC2)cc1 [Luminespib] (partner 0.01 µM)	0.0705
Cc1sc2c(c1C)C(c1ccc(Cl)cc1)=N[C@@H](CC(=O)OC(C)(C)C)c1nnc(C)n1-2 [JQ1] + COc1cc2c(Oc3ccc(NC(=O)C4(C(=O)Nc5ccc(F)cc5)CC4)cc3F)ccnc2cc1OCCCN1CCOCC1 [Foretinib] (partner 0.25 µM)	0.625

Turning now to a further compound:
Give reported relative viability value for Cc1sc2c(c1C)C(c1ccc(Cl)cc1)=N[C@@H](CC(=O)OC(C)(C)C)c1nnc(C)n1-2 [JQ1] + Cc1cc(Nc2cc(N3CCN(C)CC3)nc(Sc3ccc(NC(=O)C4CC4)cc3)n2)n[nH]1 [Tozasertib] (partner 0.1 µM) 0.314
